Data origin, for the record: patent US11542257B2

IC50: recorded values
Tested on: endosomal acidification in A549 cells
PROTOCOL_NOTES: Inhibition of cellular endosomal acidification, acridine orange (AO), A549 cells
Type: cell-based

COMPOUND | STUDY_TARGET | SCALE_UNIT | IC50
COc1cc2c(OC)c3c(c(-c4ccc5c(c4)OCO5)c2cc1OC)C(=O)OC3 | endosomal acidification in A549 cells | nM | 58.2
C#CCCCOc1c2c(c(-c3ccc4c(c3)OCO4)c3cc(OC)c(OC)cc13)C(=O)OC2 | endosomal acidification in A549 cells | nM | 84.8
COc1cc2c(O)c3c(c(-c4ccc5c(c4)OCO5)c2cc1OC)C(=O)OC3 [Compound 2a, reference compound] | endosomal acidification in A549 cells | nM | 149
CCOC(=O)CN1CCN(CCCOc2c3c(c(-c4ccc5c(c4)OCO5)c4cc(OC)c(OC)cc24)C(=O)OC3)CC1 | endosomal acidification in A549 cells | nM | 101
COc1cc2c(OCCCN3CCOCC3)c3c(c(-c4ccc5c(c4)OCO5)c2cc1OC)C(=O)OC3 | endosomal acidification in A549 cells | nM | 56.1
CCOc1c2c(c(-c3ccc4c(c3)OCO4)c3cc(OC)c(OC)cc13)C(=O)OC2 | endosomal acidification in A549 cells | nM | 52.4
COc1cc2c(O)c3c(c(-c4ccc5c(c4)OCO5)c2cc1OC)C(=O)N(/N=C/c1ccc(Cl)cc1)C3 | endosomal acidification in A549 cells | nM | 8440
COc1cc2c(O)c3c(c(-c4ccc5c(c4)OCO5)c2cc1OC)C(=O)N(/N=C/c1cccnc1)C3 | endosomal acidification in A549 cells | nM | 11600
CO/C1=C\C(C)=C\[C@@H](C)[C@@H](O)[C@@H](C)C/C(C)=C/C=C/[C@H](OC)[C@@H]([C@@H](C)[C@@H](O)[C@H](C)[C@@]2(O)C[C@@H](O)[C@H](C)[C@@H](C(C)C)O2)OC1=O [Baf A1, bafilomycin A1, reference compound] | endosomal acidification in A549 cells | nM | 21.3
